Entry source: ChEMBL document CHEMBL1146019

targetOrSystem: Human immunodeficiency virus type 1 protease (Human immunodeficiency virus 1, UniProt Q72874)
quantityMeasured: Ki (nM)
The figure you give is taken to be in nM; do not add the unit.

[
  {
    "molecule": "CC(C)CN(CC(O)C(Cc1ccccc1)NC(=O)O[C@H]1C[C@H]2CCC[C@H]2C1)S(=O)(=O)c1ccc(CO)cc1 (some centres not stated)",
    "quantityUnit": "nM",
    "Ki": 5.3
  }
]

Next up:
What the record says about CC(C)CN(CC(O)C(Cc1ccccc1)NC(=O)O[C@@H]1C[C@@H]2CCO[C@@H]2C1)S(=O)(=O)c1ccc(N)cc1 (some centres not stated) : Ki is 0.14

* * *

Test system: Human immunodeficiency virus 1
protocolText: Antiviral activity against multi drug-resistant HIV1 ES variant in human PHA-PBMC cells
Format: functional, organism-based
runConditions: Human immunodeficiency virus 1, PBMC
pIC50: −log10 of the molar value.
quantityMeasured: pIC50

The cases that follow already have their pIC50 on record.
[
  {
    "molecule": "CC(C)c1nc(CN(C)C(=O)N[C@H](C(=O)N[C@@H](Cc2ccccc2)C[C@H](O)[C@H](Cc2ccccc2)NC(=O)OCc2cncs2)C(C)C)cs1",
    "pIC50": "< 6.00"
  },
  {
    "molecule": "CC(C)CN(CC(O)C(Cc1ccccc1)NC(=O)O[C@@H]1C[C@@H]2CCO[C@@H]2C1)S(=O)(=O)c1ccc(CO)cc1 (stereo partly specified)",
    "pIC50": 7.51
  },
  {
    "molecule": "CC(C)(C)NC(=O)[C@@H]1CN(Cc2cccnc2)CCN1C[C@@H](O)C[C@@H](Cc1ccccc1)C(=O)N[C@H]1c2ccccc2C[C@H]1O",
    "pIC50": "< 6.00"
  },
  {
    "molecule": "CC(C)(C)NC(=O)[C@@H]1C[C@@H]2CCCC[C@@H]2CN1C[C@@H](O)[C@H](Cc1ccccc1)NC(=O)[C@H](CC(N)=O)NC(=O)c1ccc2ccccc2n1",
    "pIC50": "< 6.00"
  },
  {
    "molecule": "Cc1c(O)cccc1C(=O)N[C@@H](CSc1ccccc1)[C@H](O)CN1C[C@H]2CCCC[C@H]2C[C@H]1C(=O)NC(C)(C)C",
    "pIC50": "< 6.00"
  }
]

What the record says about CC(C)CN(C[C@@H](O)[C@H](Cc1ccccc1)NC(=O)O[C@H]1CCOC1)S(=O)(=O)c1ccc(N)cc1 : pIC50 is < 6.00
